Target: Proto-oncogene tyrosine-protein kinase Src (Homo sapiens);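 note: each value is an averaged percent inhibition of SRC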
Conditions: at 1 µM
quantity_kind: inhibition (%)
Answer in %, number only, no unit symbol.

{"smi": "CCc1nccc2c1nc(-c1nonc1N)n2CC", "quantity_kind": "inhibition", "endpoint_unit": "%", "recorded_result": 10.1}
{"smi": "O=C1Nc2ccc(I)cc2C1=Cc1cc(Br)c(O)c(Br)c1", "quantity_kind": "inhibition", "endpoint_unit": "%", "recorded_result": 14.2}
{"smi": "COc1cc2ncn(-c3cc(OCc4ccccc4C(F)(F)F)c(C(C)=O)s3)c2cc1OC", "quantity_kind": "inhibition", "endpoint_unit": "%", "recorded_result": 6.06}

// below: inhibition requested for another molecule
Prompt: Look at this molecule and give its reported inhibition. Fc1ccc(-c2nc3n(c2-c2ccncc2)CCS3)cc1
Completion: 8.62

* * *

Target: Serine/threonine-protein kinase Chk1 (Homo sapiens) (UniProt O14757);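 note: mean inhibition of CHEK1, part of the GSK PKIS profiling set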
Sequence (O14757 whole entry): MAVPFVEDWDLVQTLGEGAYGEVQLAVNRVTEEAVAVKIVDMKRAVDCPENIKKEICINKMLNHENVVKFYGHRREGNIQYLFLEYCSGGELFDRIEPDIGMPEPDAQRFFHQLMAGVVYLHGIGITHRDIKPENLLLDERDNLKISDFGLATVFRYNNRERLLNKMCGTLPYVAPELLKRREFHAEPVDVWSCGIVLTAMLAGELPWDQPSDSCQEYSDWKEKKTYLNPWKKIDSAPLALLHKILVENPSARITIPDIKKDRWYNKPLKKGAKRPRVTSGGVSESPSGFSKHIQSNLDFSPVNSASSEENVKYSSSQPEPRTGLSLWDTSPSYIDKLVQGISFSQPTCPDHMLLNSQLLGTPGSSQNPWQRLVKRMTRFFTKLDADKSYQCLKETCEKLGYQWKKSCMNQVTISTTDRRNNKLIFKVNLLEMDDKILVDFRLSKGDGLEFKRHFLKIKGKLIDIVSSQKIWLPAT
Conditions: at 1 µM
quantity_kind: inhibition
In your response, the unit should come after the numeric value.

Here are 3 molecules together with their reported answers.
{"smi": "NS(=O)(=O)c1ccc(Nc2cc(-c3ccc(O)c(F)c3)n[nH]2)cc1", "inhibition": "8.18%"}
{"smi": "COc1cc(Nc2ncc3c(C)nc(-c4cccc(C(F)(F)F)c4)n3n2)cc(OC)c1OC", "inhibition": "5.15%"}
{"smi": "CCc1ccc(Oc2nccc(-c3c(-c4ccc(F)cc4)ncn3C3CCNCC3)n2)cc1", "inhibition": "6.62%"}

We now examine a further molecule.
Prompt: Can you look up the measured inhibition of CCS(=O)(=O)c1ccc(OC)c(Nc2ncc(-c3cccc(-c4ccccc4F)c3)o2)c1 for me?
Completion: 2.03%

* * *

Measured inhibition of individual entries
Tested on: Epidermal growth factor receptor (Homo sapiens), P00533 [T790M]
Sequence (P00533 whole entry T790M): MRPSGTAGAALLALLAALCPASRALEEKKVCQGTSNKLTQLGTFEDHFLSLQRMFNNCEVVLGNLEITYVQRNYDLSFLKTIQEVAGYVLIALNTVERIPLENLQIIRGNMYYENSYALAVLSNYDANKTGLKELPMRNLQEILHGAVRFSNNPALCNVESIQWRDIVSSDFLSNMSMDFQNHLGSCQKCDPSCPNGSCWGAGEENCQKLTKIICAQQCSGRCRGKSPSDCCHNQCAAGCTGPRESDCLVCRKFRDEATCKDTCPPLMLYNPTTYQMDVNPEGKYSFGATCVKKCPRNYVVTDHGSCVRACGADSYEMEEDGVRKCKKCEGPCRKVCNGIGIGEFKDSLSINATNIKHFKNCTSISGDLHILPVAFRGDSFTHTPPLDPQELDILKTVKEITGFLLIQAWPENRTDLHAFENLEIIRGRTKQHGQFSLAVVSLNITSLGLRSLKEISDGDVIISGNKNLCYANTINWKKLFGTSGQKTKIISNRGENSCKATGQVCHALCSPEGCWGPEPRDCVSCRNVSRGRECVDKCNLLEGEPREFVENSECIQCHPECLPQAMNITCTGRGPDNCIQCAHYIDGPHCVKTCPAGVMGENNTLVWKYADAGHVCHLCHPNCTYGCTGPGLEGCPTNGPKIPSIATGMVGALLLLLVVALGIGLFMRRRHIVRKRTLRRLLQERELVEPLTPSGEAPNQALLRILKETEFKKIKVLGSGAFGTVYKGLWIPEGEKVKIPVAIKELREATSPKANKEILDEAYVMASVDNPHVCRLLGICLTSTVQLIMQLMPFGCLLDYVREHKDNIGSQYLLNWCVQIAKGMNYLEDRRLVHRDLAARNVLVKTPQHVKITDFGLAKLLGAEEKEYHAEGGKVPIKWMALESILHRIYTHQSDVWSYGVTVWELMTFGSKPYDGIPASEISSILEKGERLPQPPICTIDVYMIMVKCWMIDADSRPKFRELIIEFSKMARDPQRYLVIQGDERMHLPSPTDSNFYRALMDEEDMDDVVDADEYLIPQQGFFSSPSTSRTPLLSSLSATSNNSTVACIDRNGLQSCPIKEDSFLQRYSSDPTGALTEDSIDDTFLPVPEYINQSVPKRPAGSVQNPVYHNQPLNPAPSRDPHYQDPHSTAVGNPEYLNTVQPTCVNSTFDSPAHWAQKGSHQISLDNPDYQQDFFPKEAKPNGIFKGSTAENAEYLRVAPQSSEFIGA
Conditions: at 1 µM
Write the answer as a number in %, unit excluded.

{"smi": "Fc1ccc(-c2nc3n(c2-c2ccncc2)CCS3)cc1", "recorded_result": 0.86}
{"smi": "Fc1ccc(-c2ncn(CCCN3CCOCC3)c2-c2ccncc2)cc1", "recorded_result": -1.55}
{"smi": "C[C@@H](Oc1cc(-n2cnc3ccc(OCC4CCN(C)CC4)cc32)sc1C(N)=O)c1ccccc1Cl", "recorded_result": 3.47}
{"smi": "Fc1ccc(-c2ncn(C3CCNCC3)c2-c2ccnc(Oc3ccc4c(c3)OCO4)n2)cc1", "recorded_result": 6.05}

Prompt: Find the recorded inhibition belonging to COc1cc(Nc2ncc3c(C)nc(-c4cccc(Oc5ccccc5)c4)n3n2)cc(OC)c1OC and report it.
Completion: -1.01

Prompt: Which inhibition value is on record for CCC(=O)Nc1ccc(C)c(-c2ccc(C(=O)NCC3CC3)cc2)c1 ?
Completion: 2.33

Prompt: Item under review: CCc1ccc(Oc2nccc(-c3c(-c4ccc(F)cc4)ncn3C3CCNCC3)n2)cc1 . Reported inhibition?
Completion: 4.64

Prompt: Would you kindly share the measured inhibition for NS(=O)(=O)c1ccc(N/N=C2\C(=O)Nc3ccc(C(=O)NCCCn4ccnc4)cc32)cc1 ?
Completion: 5.05

Prompt: Query (compound): CNC(=O)c1cncc(/C=C/c2c(C)cccc2C)c1 ; field requested: inhibition
Completion: 0.11

Prompt: Requested read-out: inhibition. Entry: O=C(Nc1ccc(Oc2ccc3[nH]c(NC(=O)c4ccccc4)nc3c2)cc1)Nc1cc(C(F)(F)F)ccc1F
Completion: 5.49
